test: Cytotoxicity against Homo sapiens (human) FL cells assessed as cell viability at 10^-4 M after 72 hr by trypan blue exclusion assay relative to control; type: cell-based; settings: read-out: Activity
Task for the reader: assign each of the following molecules its reported viability at 72 h, 100 µM.

Here's what some known entries look like.
querySmiles: CCOC(=O)N1c2ccccc2N(C(=O)OCC)C1CC(C)=O
viability at 72 h, 100 µM: 0%

querySmiles: CCOC(=O)N1c2cc(C)c(C)cc2N(C(=O)OCC)C1CC(=O)/C=C/c1ccccc1
viability at 72 h, 100 µM: 60%

querySmiles: CCOC(=O)N1c2cc(C)c(C)cc2N(C(=O)OCC)C1CC(=O)c1ccc(OC)cc1
viability at 72 h, 100 µM: 63.6%

With those in mind, consider the next molecule.
Item under review: "CCOC(=O)N1c2ccccc2N(C(=O)OCC)C1CC(=O)c1ccccc1" . Reported viability at 72 h, 100 µM?
74.5%

Provenance of the data: ChEMBL document CHEMBL3046438
